Origin of values: patent US6897304B2

# test.system: CEPase (CEPase Type IV) (Enterobacter cloacae)
# Construct: purchased Sigma chemical Co. CEPase Type IV; host or cells: isolated from E. cloacae
# Sequence (P05364 21-381): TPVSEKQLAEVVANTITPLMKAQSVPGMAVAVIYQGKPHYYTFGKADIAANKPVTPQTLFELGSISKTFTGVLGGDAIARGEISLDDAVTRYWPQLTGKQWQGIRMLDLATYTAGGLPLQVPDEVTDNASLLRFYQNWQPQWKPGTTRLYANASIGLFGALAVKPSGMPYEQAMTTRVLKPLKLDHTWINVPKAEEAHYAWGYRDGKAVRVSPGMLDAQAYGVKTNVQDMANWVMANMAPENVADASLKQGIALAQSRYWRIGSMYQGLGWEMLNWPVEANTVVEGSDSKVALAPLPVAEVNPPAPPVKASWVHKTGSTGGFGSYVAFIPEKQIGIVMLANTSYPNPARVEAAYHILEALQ
# assay.procedure: Paper disk colour-change test, reactivity against β-lactamases (CEPase)
# Type: biochemical, E. cloacae
# Parameters: key: −: negative; +: positive; ++: highly positive
# measurement.context: content 5 μg/disk; 50 μl of 1 U/ml enzyme; 10 minutes
# Procedure: Each of the test compounds is dissolved in dimethyl sulfoxide. Paper disks with a diameter of 8 mm containing the test compounds in an amount of 5 or 25 μg per disk were prepared and dried in air. Each of these disks was added dropwise with a solution of β-lactamases (50 μl) prepared to a concentration of 1 U/ml with distilled water and allowed for 10 minutes. […]
readout.type: Reactivity against β-lactamases: CEPase

# count of solved cases: 5
O=C(Cc1cccs1)NC1C(=O)N2C(C(=O)O)=C(C=Cc3ccc([N+](=O)[O-])cc3[N+](=O)[O-])CS[C@H]12 (stereo partly drawn) [compound A, reference compound] ... ++
CC(C)(ON=C(C(=O)NC1C(=O)N2C(C(=O)O)=C(C=Cc3ccc([N+](=O)[O-])cc3[N+](=O)[O-])CS[C@H]12)c1csc(N)n1)C(=O)O (stereo partly drawn) [compound 1] ... −
CON=C(C(=O)NC1C(=O)N2C(C(=O)O)=C(C=Cc3ccc([N+](=O)[O-])cc3)CS[C@H]12)c1csc(N)n1 (stereo partly drawn) [compound 4] ... −
CC(C)(ON=C(C(=O)NC1C(=O)N2C(C(=O)O)=C(C=Cc3ccc([N+](=O)[O-])cc3)CS[C@H]12)c1csc(N)n1)C(=O)O (stereo partly drawn) [compound 2] ... −
Nc1nc(C(=NOCC(=O)O)C(=O)NC2C(=O)N3C(C(=O)O)=C(C=Cc4ccc([N+](=O)[O-])cc4[N+](=O)[O-])CS[C@H]23)cs1 (stereo partly drawn) [compound 5] ... −

Asked: Suppose we examine the compound Nc1nc(C(=NOCC(=O)O)C(=O)NC2C(=O)N3C(C(=O)O)=C(C=Cc4ccc([N+](=O)[O-])cc4)CS[C@H]23)cs1 (stereo partly drawn) [compound 6] ; what Reactivity against β-lactamases: CEPase value has been reported?
Given back: −
